Assay: Cytotoxicity human L02 cells after 48 hrs by WST-8 based CCK8 assay
Type: cell-based
Conditions: L02, 48 h
readout.kind: IC50 (µM)

> print(dat)
                       query.smiles  unit.info  cmp  endpoint.result
1  COC(=O)c1cc(O)c2[nH]c3ccccc3c2c1         µM    >              160
2        Cc1cc2c(cc1O)[nH]c1ccccc12         µM    =             85.2
3   COc1ccc2c(c1)[nH]c1ccc(C=O)cc12         µM    =             72.5

###

System: HepG2
Assay: cells
Assay type: functional, cell-based
Settings: Homo sapiens, HepG2, 48 h
pIC50: −log10 of the molar value.
readout.kind: pIC50

> print(dat)
                                    molecule  target.or.system  readout.kind  cmp  endpoint.result
 1                Cc1cc2c(cc1O)[nH]c1ccccc12             HepG2         pIC50    =             4.84
 2             COC(=O)c1ccc2[nH]c3ccccc3c2c1             HepG2         pIC50    =             4.43
 3  COC(=O)c1cc2c(cc1OC)[nH]c1cc(OC)ccc12 [CLAUSZOLINE C]             HepG2         pIC50    <             3.80
 4  COc1ccc2c(c1)[nH]c1cc(OC)c(C(=O)O)cc12 [CLAUSINE K]             HepG2         pIC50    =             4.61
 5  COc1ccc2c(c1)[nH]c1ccc(C=O)cc12 [CLAUSZOLINE K]             HepG2         pIC50    =             5.37
 6  COc1ccc2c(c1)[nH]c1cc(OC)c(C=O)cc12 [LANSINE]             HepG2         pIC50    =             3.99
 7  COC(=O)c1cc2c(cc1O)[nH]c1ccccc12 [MUKONIDINE]             HepG2         pIC50    <             3.80
 8  COC(=O)c1cc(O)c2[nH]c3ccccc3c2c1 [CLAUSINE E]             HepG2         pIC50    =             4.80
 9  COc1c2ccoc2nc2c(OC)cccc12 [GAMMA-FAGARINE]             HepG2         pIC50    <             3.80
10                   COc1cc(=O)n(C)c2ccccc12             HepG2         pIC50    <             3.80
11    O=Cc1cc2c(cc1O)[nH]c1ccccc12 [MUKONAL]             HepG2         pIC50    =             4.18

###

System: HepG2
Test: cells
Format: functional, cell-based
Conditions: Homo sapiens, HepG2, 48 h
pIC50: −log10 of the molar value.
readout.kind: pIC50

> print(dat)
                             query.smiles  target.or.system  cmp  endpoint.result
1                   COc1c2ccccc2nc2occc12             HepG2    =             4.26
2         O=Cc1cc(O)c2[nH]c3ccc(O)cc3c2c1             HepG2    =             3.87
3      COc1ccc2c(c1)[nH]c1cc(O)c(C=O)cc12             HepG2    =             4.54
4         O=Cc1cc2c(cc1O)[nH]c1cc(O)ccc12             HepG2    =             4.48
5  Cc1cc2c([nH]c3ccccc32)c2c1OC(C)(C)C=C2             HepG2    <             3.80
